# study-system: CDK9/cyclin T complex (Homo sapiens, UniProt P50750)
# Construct: purchased Proqinase GmbH, Germany
# Sequence (P50750 whole entry): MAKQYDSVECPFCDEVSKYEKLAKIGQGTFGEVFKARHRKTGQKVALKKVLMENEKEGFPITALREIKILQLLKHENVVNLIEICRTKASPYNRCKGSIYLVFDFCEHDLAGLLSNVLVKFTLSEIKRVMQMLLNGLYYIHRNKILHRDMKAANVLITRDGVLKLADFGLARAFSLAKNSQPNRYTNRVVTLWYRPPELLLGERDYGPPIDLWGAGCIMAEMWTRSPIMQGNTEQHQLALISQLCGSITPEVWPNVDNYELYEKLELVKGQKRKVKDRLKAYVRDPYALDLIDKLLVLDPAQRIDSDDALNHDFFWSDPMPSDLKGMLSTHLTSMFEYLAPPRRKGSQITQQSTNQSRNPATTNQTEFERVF
# Sequence (O60563 whole entry partner): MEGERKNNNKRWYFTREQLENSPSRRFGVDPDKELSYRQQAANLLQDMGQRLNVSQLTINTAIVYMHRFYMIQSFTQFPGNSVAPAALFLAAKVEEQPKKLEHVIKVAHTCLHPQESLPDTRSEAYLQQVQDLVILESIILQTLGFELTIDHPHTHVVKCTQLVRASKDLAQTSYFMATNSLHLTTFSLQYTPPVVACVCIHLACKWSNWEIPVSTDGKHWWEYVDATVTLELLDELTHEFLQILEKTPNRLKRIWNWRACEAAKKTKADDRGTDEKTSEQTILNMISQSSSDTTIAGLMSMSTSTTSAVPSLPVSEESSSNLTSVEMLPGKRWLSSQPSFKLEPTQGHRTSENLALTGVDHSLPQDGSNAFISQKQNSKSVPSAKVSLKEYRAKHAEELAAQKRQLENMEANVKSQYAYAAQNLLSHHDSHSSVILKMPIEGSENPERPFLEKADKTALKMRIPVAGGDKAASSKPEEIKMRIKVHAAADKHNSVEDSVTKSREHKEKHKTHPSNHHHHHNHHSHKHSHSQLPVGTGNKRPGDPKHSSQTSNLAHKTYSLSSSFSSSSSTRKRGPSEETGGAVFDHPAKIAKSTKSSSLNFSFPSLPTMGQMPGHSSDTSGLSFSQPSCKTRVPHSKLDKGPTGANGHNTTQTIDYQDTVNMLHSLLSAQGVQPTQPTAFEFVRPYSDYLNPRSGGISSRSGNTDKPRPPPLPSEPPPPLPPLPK
# assay-overview: CDK9/cyclin T kinase assay (as for CDK7)
# Type: biochemical
# test-parameters: 100 nM; mean of three (standard deviation); read-out: CDK9 % remaining kinase activity after incubation with 100 nM of compound
Give measured remaining activity at 0.1 µM for each item. Keep answers brief.
One number for each entry, in %.

// for each compound in input: emit remaining activity at 0.1 µM
1. CC(C)c1cnn2c(NCc3ccccc3)cc(NC3CCC(Nc4cc(NCc5ccccc5)n5ncc(C(C)C)c5n4)CC3)nc12 (stereo not drawn) [ICEC0291]
2. CC(C)c1cnn2c(NCc3ccccc3)cc(N[C@@H](CO)CCCCCCc3cncnc3)nc12 [ICEC-0174]
3. CC(C)c1cnn2c(NCc3ccccc3)cc(NCCCCCCN)nc12 [ICEC0060]

1. 90
2. 92
3. 91
